biological target: CD117 on wild-type cells (TF-1 cells, HSPCs, HSCs) (human, UniProt P10721 26-976); test: cell-based or functional assay
Sequence (P10721 26-976 limits assumed): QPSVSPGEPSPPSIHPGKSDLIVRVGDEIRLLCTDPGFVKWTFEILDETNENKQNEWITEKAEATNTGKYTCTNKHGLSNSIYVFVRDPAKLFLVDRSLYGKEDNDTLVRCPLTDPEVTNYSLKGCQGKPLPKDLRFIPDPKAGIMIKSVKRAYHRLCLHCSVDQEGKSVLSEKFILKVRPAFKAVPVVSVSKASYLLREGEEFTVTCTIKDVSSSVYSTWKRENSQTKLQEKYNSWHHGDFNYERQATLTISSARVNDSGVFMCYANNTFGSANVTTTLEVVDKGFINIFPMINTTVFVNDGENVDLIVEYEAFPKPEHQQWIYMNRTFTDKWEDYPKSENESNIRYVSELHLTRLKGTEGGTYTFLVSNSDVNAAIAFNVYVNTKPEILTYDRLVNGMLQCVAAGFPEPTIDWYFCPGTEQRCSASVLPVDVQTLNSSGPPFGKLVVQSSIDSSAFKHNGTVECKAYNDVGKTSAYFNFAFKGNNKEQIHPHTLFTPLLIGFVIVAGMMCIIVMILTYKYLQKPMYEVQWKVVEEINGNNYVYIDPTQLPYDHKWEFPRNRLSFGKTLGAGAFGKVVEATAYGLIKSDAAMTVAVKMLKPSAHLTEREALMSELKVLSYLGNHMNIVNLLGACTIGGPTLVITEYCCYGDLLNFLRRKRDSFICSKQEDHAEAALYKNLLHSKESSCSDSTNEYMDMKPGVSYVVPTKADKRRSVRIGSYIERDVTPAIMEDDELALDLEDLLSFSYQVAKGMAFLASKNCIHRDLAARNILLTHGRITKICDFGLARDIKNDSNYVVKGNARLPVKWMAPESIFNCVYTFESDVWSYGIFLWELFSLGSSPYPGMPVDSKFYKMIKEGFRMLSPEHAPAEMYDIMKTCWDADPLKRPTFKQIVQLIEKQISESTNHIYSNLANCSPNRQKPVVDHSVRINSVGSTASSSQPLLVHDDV
measurement.kind: IC50, inhibition of SCF-dependent proliferation of CD34-positive HSPCs (CellTiter-Glo) (µg/mL)
One number for each entry, in µg/mL.

Please review the following examples before continuing.
binder: Eiger (antibody, V domains shown, IgG; also called VH1/VL1.26) VH: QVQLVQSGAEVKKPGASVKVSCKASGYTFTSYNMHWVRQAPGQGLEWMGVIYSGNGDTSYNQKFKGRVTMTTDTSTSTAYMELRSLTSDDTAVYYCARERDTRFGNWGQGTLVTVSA VL: EIVLTQSPSSLSASVGDRVTITCRASESVDIYGSSFMHWYQQKPGKAPKLLIYLASNLESGVPSRFSGSGSGTDFTLTISSLQPEDFATYYCQQNKEEPYTFGQGTKLEIKR
measurement: 0.594
--
binder: FSI-174 (antibody, human IgG1, V domains shown) VH: QVQLVQSGAEVKKPGASVKVSCKASGYTFTSYNMHWVRQAPGQGLEWMGVIYSGNGDTSYAQKFQGRVTITADKSTSTAYMELSSLRSEDTAVYYCARERDTRFGNWGQGTLVTVSS VL: DIVMTQSPLSLPVTPGEPASISCRASESVDIYGQSFMHWYLQKPGQSPQLLIYLASNLESGVPDRFSGSGSGTDFTLKISRVEAEDVGVYYCQQNNEDPYTFGGGTKVEIK
measurement: 0.0253
--
binder: Piz Bernina (antibody, V domains shown, IgG; also called VH1/VL1.17) VH: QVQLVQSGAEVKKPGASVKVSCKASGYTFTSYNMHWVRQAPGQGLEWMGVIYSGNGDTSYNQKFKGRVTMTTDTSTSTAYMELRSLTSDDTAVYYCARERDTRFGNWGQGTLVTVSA VL: EIVLTQSPSSLSASVGDRVTITCRASESVDIYGESFMHWYQQKPGKAPKLLIYLASNLESGVPSRFSGSGSGTDFTLTISSLQPEDFATYYCQQNNEEPYTFGQGTKLEIKR
measurement: 0.00521
--
binder: Piz Zupo (antibody, V domains shown, IgG; also called VH1/VL1.25) VH: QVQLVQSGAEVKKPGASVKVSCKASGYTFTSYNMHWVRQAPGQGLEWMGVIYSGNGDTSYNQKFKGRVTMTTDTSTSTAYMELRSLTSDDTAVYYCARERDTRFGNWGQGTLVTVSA VL: EIVLTQSPSSLSASVGDRVTITCRASESVDIYGQSFMHWYQQKPGKAPKLLIYLASNLESGVPSRFSGSGSGTDFTLTISSLQPEDFATYYCQQNKEEPYTFGQGTKLEIKR
measurement: 0.114
--
binder: Dufour (antibody, V domains shown, IgG; also called VH1/VL1; HC1 LC1) VH: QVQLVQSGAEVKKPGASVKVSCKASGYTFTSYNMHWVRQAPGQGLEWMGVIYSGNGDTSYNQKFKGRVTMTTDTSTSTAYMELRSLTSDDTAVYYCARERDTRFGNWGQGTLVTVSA VL: EIVLTQSPSSLSASVGDRVTITCRASESVDIYGNSFMHWYQQKPGKAPKLLIYLASNLESGVPSRFSGSGSGTDFTLTISSLQPEDFATYYCQQNNEDPYTFGQGTKLEIK
measurement: 0.0949

Okay, next one:
Task: Using the record for Bellavista (antibody, V domains shown, IgG; also called VH1.4/VL1.29) VH: QVQLVQSGAEVKKPGASVKVSCKASGYTFTSYNMHWVRQAPGQGLEWMGVIYSGQGDTSYNQKFKGRVTMTTDTSTSTAYMELRSLTSDDTAVYYCARERDTRFGNWGQGTLVTVSA VL: EIVLTQSPSSLSASVGDRVTITCRASESVDIYGESFMHWYQQKPGKAPKLLIYLASNLESGVPSRFSGSGSGTDFTLTISSLQPEDFATYYCQQNREEPYTFGQGTKLEIKR , report its IC50, inhibition of SCF-dependent proliferation of CD34-positive HSPCs (CellTiter-Glo).
Result: 0.096
